- target.or.system: Tyrosine-protein kinase Fyn (Homo sapiens, UniProt P06241)
- Sequence (P06241 whole entry): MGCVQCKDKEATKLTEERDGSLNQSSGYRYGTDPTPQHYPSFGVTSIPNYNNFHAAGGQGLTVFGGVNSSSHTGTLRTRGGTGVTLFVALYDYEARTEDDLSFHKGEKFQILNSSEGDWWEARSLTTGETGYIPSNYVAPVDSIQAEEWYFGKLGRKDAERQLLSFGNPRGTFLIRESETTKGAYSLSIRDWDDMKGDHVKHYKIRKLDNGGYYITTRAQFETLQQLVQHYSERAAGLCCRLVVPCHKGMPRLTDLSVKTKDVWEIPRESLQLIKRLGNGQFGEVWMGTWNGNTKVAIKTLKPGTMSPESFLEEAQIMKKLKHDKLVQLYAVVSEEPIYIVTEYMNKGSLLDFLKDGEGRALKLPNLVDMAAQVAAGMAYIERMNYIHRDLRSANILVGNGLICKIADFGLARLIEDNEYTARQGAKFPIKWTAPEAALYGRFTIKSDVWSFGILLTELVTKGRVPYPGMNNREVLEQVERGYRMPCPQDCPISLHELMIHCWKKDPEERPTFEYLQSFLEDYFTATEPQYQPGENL
- experiment.notes: Radioisotope Filter Binding Assay: IC50 Table 13-20: The protocol calls for test compound of the invention to be incubated with kinase, substrate, cofactors, and radio-isotope-labeled ATP (33P-gamma-ATP). The reaction mixtures are then spotted onto filter papers which bind the radioisotope labeled catalytic product. Unreacted phosphate is removed via washing. The reagents used include base reaction buffer; 20 mM Hepes (pH 7.5), 10 mM MgCl2, 1 mM EGTA, 0.02% Brij35, 0.02 mg/ml BSA, 0.1 mM Na3VO4, 2 mM DTT, 1% DMSO. The reaction procedure include the following steps: (1) prepare indicated substrate in freshly prepared base reaction buffer, (2) deliver any required cofactors to the substrate solution above, (3) deliver indicated kinase into the substrate solution and gently mix, (4) deliver compounds in DMSO into the kinase reaction mixture by Acoustic technology (Echo550; nanoliter range), incubate for 20 minutes at room temperature, (5) deliver 33P-ATP (specific activity 10 μCi/μL) into the reaction mixture to initiate the reaction, (6) incubate kinase reaction for 2 hours at room temperature, (7) reactions are spotted onto P81 ion exchange paper, (8) detect kinase activity by filter-binding method.
measurement.kind: pIC50
pIC50 here is simply -log10 of the concentration when that concentration is written in mol/L.

Query block: Please give measured pIC50 of the following entry: Nc1ncnc2c1c(-c1ccc(Oc3ccccc3)c(F)c1)nn2CC1SSCC1OC(=O)c1ccccc1 (stereo unspecified)
Result block: 6.12

----------
- target.or.system: Phosphatidylinositol 4,5-bisphosphate 3-kinase catalytic subunit delta isoform (Homo sapiens, UniProt O00329)
- Sequence (O00329 whole entry, canonical isoform): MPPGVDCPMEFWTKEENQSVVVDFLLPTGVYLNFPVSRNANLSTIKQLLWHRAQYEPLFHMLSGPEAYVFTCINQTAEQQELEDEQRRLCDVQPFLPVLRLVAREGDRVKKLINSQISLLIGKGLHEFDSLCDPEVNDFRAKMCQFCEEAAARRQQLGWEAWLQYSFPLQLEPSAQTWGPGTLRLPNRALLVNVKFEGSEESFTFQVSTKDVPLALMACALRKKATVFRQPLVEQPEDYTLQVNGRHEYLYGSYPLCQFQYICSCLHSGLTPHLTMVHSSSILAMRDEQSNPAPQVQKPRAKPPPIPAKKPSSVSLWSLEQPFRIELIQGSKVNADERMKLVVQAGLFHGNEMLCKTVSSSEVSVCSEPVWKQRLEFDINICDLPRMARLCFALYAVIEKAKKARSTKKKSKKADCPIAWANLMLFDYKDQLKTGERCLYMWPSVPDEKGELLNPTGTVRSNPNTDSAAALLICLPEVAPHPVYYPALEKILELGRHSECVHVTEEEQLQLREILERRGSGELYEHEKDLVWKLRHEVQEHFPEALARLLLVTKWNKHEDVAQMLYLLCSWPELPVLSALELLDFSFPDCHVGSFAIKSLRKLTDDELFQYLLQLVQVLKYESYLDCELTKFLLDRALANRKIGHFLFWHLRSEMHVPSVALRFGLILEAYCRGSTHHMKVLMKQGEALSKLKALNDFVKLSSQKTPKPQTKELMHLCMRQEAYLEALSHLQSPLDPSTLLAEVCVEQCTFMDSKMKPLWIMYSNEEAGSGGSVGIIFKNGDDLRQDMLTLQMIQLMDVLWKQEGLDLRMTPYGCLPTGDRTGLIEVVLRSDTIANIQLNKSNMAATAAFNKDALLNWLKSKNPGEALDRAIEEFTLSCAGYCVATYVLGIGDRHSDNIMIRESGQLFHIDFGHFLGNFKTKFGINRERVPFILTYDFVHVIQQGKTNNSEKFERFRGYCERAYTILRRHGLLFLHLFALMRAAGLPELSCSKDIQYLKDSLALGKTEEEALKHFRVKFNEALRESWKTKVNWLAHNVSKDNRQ
- experiment.notes: Radioisotope Filter Binding Assay: IC50 Table 13-20: The protocol calls for test compound of the invention to be incubated with kinase, substrate, cofactors, and radio-isotope-labeled ATP (33P-gamma-ATP). The reaction mixtures are then spotted onto filter papers which bind the radioisotope labeled catalytic product. Unreacted phosphate is removed via washing. The reagents used include base reaction buffer; 20 mM Hepes (pH 7.5), 10 mM MgCl2, 1 mM EGTA, 0.02% Brij35, 0.02 mg/ml BSA, 0.1 mM Na3VO4, 2 mM DTT, 1% DMSO. The reaction procedure include the following steps: (1) prepare indicated substrate in freshly prepared base reaction buffer, (2) deliver any required cofactors to the substrate solution above, (3) deliver indicated kinase into the substrate solution and gently mix, (4) deliver compounds in DMSO into the kinase reaction mixture by Acoustic technology (Echo550; nanoliter range), incubate for 20 minutes at room temperature, (5) deliver 33P-ATP (specific activity 10 μCi/μL) into the reaction mixture to initiate the reaction, (6) incubate kinase reaction for 2 hours at room temperature, (7) reactions are spotted onto P81 ion exchange paper, (8) detect kinase activity by filter-binding method.
measurement.kind: IC50 (nM)
Report the figure in nM without appending any unit label.

Query block: Please give measured IC50 of the following entry: Nc1nc2cc(-c3nn(C[C@@H]4SSC[C@H]4OC(=O)c4ccccc4)c4ncnc(N)c34)ccc2o1 (relative stereo)
Result block: 750
